All figures here come from the supplement of paper PMC10567573.

# protein stability index per entry
B1: ADAMTSL2 (parent)
chain: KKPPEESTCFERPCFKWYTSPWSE

Variants of: B1
test_description: protein stability index of a GFP-peptide fusion (GPS, HEK-293T) (PSI 1-6); higher = more stable;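 also: lentivirally expressed fusions sorted by FACS into six bins by GFP to DsRed ratio, PSI derived from sequencing read proportions per bin multiplied by bin number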
condition_context: c terminus: a fixed tail appended
parameter: protein stability index

1) MKPPEESTCFERPCFKWYTSPWSE [K1M] | 2.48
2) KKPPEESTCFERPCFKWYTDPWSE [S20D] | 2.42
3) KKPPEESTCFERPCFKWVTSPWSE [Y18V] | 2.22
4) KKPPEESTCFERPCFKWYTEPWSE [S20E] | 2.11
5) KKPGEESTCFERPCFKWYTSPWSE [P4G] | 3.23
6) KKPPEMSTCFERPCFKWYTSPWSE [E6M] | 1.9
7) KKPPEESTCFERPCFKWYTSPWEE [S23E] | 3.02
8) KKPPEESTCFERPCFKWYDSPWSE [T19D] | 2.65
9) KKPPEESTCFERPCFKWYTSPWHE [S23H] | 2.55
10) KKPPEESTCFERICFKWYTSPWSE [P13I] | 2.02
11) KKPPEESTCFERPTFKWYTSPWSE [C14T] | 2.42
12) KKPPEESTCFEAPCFKWYTSPWSE [R12A] | 2.65
13) KKPPEESTCFERPCFKWYTSPWSD [E24D] | 2.76
14) KKPPEEATCFERPCFKWYTSPWSE [S7A] | 2.31
15) KKPPEESTCFEVPCFKWYTSPWSE [R12V] | 2.29
16) KKPPEESTCFERPCFKWQTSPWSE [Y18Q] | 2.58
17) KKPCEESTCFERPCFKWYTSPWSE [P4C] | 1.95
18) KMPPEESTCFERPCFKWYTSPWSE [K2M] | 2.72
19) KKPPEESTCFESPCFKWYTSPWSE [R12S] | 2.79
20) KKYPEESTCFERPCFKWYTSPWSE [P3Y] | 1.88
21) KKPPEESTCIERPCFKWYTSPWSE [F10I] | 2.81
22) KKKPEESTCFERPCFKWYTSPWSE [P3K] | 2.18
23) KKPPEESTCFERPCFKWYTSPWME [S23M] | 2.04
24) KKPPYESTCFERPCFKWYTSPWSE [E5Y] | 2.01
25) KKPPEESTCFERPCFKWYTSPWSI [E24I] | 1.73
26) KKPPEESTCFEQPCFKWYTSPWSE [R12Q] | 2.3
27) KKHPEESTCFERPCFKWYTSPWSE [P3H] | 1.84
28) KKPPEESICFERPCFKWYTSPWSE [T8I] | 2.32
29) KKPPEESTCFSRPCFKWYTSPWSE [E11S] | 2.82
30) KKPPEESTCFERSCFKWYTSPWSE [P13S] | 2.31
31) KKPPEESTCFERPCFKWYTSPWSR [E24R] | 1.83
32) KKPPEESHCFERPCFKWYTSPWSE [T8H] | 2.29
33) KKPPEESTCFERPCFKWYTSPPSE [W22P] | 4
34) KKPVEESTCFERPCFKWYTSPWSE [P4V] | 2.77
35) DKPPEESTCFERPCFKWYTSPWSE [K1D] | 2.67
36) KKPPEESTCDERPCFKWYTSPWSE [F10D] | 2.89
37) KKPPEESTCNERPCFKWYTSPWSE [F10N] | 2.45
38) KRPPEESTCFERPCFKWYTSPWSE [K2R] | 2.61
39) KKPPEESTCFERPCFVWYTSPWSE [K16V] | 1.94
40) KKPPEYSTCFERPCFKWYTSPWSE [E6Y] | 1.97
41) KKPPEESTKFERPCFKWYTSPWSE [C9K] | 2.69
42) KKPPEESTCFERPCFKWCTSPWSE [Y18C] | 2.33
43) KKPPEESTCFERPCFKWYTSPCSE [W22C] | 3.35
44) KKPPEESTCFERPCFKWYTSPMSE [W22M] | 2.6
45) KKPPEESTCFERPCFKFYTSPWSE [W17F] | 2.88
46) KKPPEESTCFERPCVKWYTSPWSE [F15V] | 2.87
